- target_system: human CYP2C19 (Homo sapiens, UniProt P33261)
- Sequence (P33261 whole entry): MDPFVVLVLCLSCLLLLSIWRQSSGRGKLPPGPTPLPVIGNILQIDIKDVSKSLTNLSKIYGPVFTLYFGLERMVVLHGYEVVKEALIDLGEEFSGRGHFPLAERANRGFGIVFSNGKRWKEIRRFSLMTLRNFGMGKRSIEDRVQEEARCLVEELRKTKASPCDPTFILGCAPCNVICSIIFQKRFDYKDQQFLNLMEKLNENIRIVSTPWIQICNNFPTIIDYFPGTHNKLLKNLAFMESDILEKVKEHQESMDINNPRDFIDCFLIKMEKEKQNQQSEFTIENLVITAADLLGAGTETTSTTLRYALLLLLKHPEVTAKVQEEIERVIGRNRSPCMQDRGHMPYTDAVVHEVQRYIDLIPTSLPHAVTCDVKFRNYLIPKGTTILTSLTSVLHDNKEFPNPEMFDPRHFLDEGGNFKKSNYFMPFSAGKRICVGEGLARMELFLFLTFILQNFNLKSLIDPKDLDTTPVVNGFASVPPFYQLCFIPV
- assay_text: biochemical
- measurement_parameters: CYP2C19 AC50 (half-maximal activity concentration)
Structures can show the parent of a compound that is named as a salt.
# note: exactly 10 µM is not below, so it is false; use true for AC50 strictly under it

molecule	target_system	assigned_category
CCN(CCCc1ccccc1)CCCc1ccccc1 [Alverine citrate]	human CYP2C19 (Homo sapiens, UniProt P33261)	true
O=C(c1ccc(Cl)cc1)c1ccc(Cl)cc1	human CYP2C19 (Homo sapiens, UniProt P33261)	true
c1ccc(-c2ccccc2-c2ccccc2)cc1	human CYP2C19 (Homo sapiens, UniProt P33261)	false
O=c1[nH]sc2ccccc12	human CYP2C19 (Homo sapiens, UniProt P33261)	true
COC(=O)COc1ccc(Cl)cc1Cl	human CYP2C19 (Homo sapiens, UniProt P33261)	false
CC1(C)C(C=C(Cl)Cl)C1C(=O)OC(C#N)c1ccc(F)c(Oc2ccccc2)c1 (stereo not drawn)	human CYP2C19 (Homo sapiens, UniProt P33261)	false
COP(=O)(OC)O/C(=C\Cl)c1cc(Cl)c(Cl)cc1Cl	human CYP2C19 (Homo sapiens, UniProt P33261)	true
CC(=O)O[C@]1(C(C)=O)CC[C@H]2[C@@H]3C=C(Cl)C4=CC(=O)CC[C@]4(C)[C@H]3CC[C@@]21C [Chlormadinone acetate]	human CYP2C19 (Homo sapiens, UniProt P33261)	true
CC(C)(C)c1ccc(O)c(O)c1	human CYP2C19 (Homo sapiens, UniProt P33261)	false

---

- target_system: UniProtKB P08659
- Sequence (P08659 whole entry): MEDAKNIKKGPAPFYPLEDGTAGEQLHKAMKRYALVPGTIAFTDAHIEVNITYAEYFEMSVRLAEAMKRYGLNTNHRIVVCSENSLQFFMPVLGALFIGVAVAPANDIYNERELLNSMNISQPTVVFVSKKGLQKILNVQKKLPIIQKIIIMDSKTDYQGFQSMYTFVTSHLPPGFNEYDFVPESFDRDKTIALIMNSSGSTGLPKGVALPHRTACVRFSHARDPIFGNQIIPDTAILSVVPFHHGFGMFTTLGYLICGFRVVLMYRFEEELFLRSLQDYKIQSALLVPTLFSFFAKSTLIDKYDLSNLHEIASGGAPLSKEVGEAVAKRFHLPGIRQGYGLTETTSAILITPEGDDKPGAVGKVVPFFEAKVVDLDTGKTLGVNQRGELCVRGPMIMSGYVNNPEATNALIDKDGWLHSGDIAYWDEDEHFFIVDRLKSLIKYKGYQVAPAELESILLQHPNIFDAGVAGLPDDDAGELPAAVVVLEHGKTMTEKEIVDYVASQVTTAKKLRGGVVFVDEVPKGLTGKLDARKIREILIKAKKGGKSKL
- assay_text: biochemical
- Type: biochemical
Structures can show the parent of a compound that is named as a salt.
measurement_label: Luciferase IC50

compound	target_system	result
CCCCN(CCCC)CC(O)c1cc(Cl)cc2c1-c1ccc(Cl)cc1/C2=C/c1ccc(Cl)cc1 (stereo not drawn) [Lumefantrine]	UniProtKB P08659	Inactive
Oc1ccc2[nH]cc(CCCCN3CC=C(c4ccccc4)CC3)c2c1 [Roxindole]	UniProtKB P08659	Inactive
O=C(CCCN1CCC2(CC1)C(=O)NCN2c1ccccc1)c1ccc(F)cc1 [Spiperone]	UniProtKB P08659	Inactive
CCCN1C[C@H](CSC)C[C@@H]2c3cccc4[nH]cc(c34)C[C@H]21 [Pergolide methanesulfonate]	UniProtKB P08659	Inactive
CCCC[P+](CC)(CCCC)CCCC.CCOP(=O)([O-])OCC	UniProtKB P08659	Inactive
CCc1cc(Cc2cc(CC)c(N)c(CC)c2)cc(CC)c1N [4,4'-Methylenebis(2,6-diethylaniline)]	UniProtKB P08659	Inactive
CC(Cc1ccccc1)N(C)Cc1ccco1 (stereo not drawn) [Furfenorex]	UniProtKB P08659	Inactive
CC#C[C@]1(O)CC[C@H]2[C@@H]3C[C@H](C)C4=CC(=O)CC[C@]4(C)[C@H]3CC[C@@]21C [Dimethisteron]	UniProtKB P08659	Inactive
CC1=C(C)C(=O)C(CCCCC#CCCCC#CCO)=C(C)C1=O [Docebenone]	UniProtKB P08659	Inactive
CCN(CC)CCOC(=O)C(Cc1cccc2ccccc12)CC1CCCO1 (stereo not drawn) [Nafronyl oxalate]	UniProtKB P08659	Inactive
CCc1cccc(N(C)C(N)=Nc2cccc3ccccc23)c1 [Aptiganel hydrochloride]	UniProtKB P08659	Inactive
Cl.ClCCCN1CCN(c2cccc(Cl)c2)CC1	UniProtKB P08659	Inactive
c1cc2ccc3ccc4ccc5cccc6c(c1)c2c3c4c56 [Benzo(g,h,i)perylene]	UniProtKB P08659	Inactive
O=c1[nH]c2ccccc2n1CCCN1CCN(C(c2ccccc2)c2ccccc2)CC1 [Oxatomide]	UniProtKB P08659	Inactive
C=CCN1C[C@H](C(=O)N(CCCN(C)C)C(=O)NCC)C[C@@H]2c3cccc4[nH]cc(c34)C[C@H]21 [Cabergoline]	UniProtKB P08659	Inactive
C[C@@H](NCCCc1cccc(C(F)(F)F)c1)c1cccc2ccccc12 [Cinacalcet hydrochloride]	UniProtKB P08659	Inactive
C[C@@H](Cc1ccccc1)NCc1ccccc1Cl.Cl [Clobenzorex hydrochloride]	UniProtKB P08659	Inactive
c1ccc2nc(N3CCNCC3)ccc2c1 [Quipazine maleate]	UniProtKB P08659	Inactive
CCN(CC)CCCN(c1ccccc1)C1Cc2ccccc2C1 [Aprindine hydrochloride]	UniProtKB P08659	Inactive
CC(NCCC(c1ccccc1)c1ccccc1)c1ccccc1 (stereo not drawn) [Fendiline hydrochloride]	UniProtKB P08659	Inactive
CCOP(=S)(OCC)Oc1cnc2ccccc2n1 [Quinalphos]	UniProtKB P08659	Inactive
